These measurements were taken from ChEMBL document CHEMBL1857833.

# measurement protocol: DNDI: half-life in mouse S9 microsomes at a concentration of 1uM
# Assay type: ADME, subcellular, Liver, S9 fraction
assay readout: half-life at 1 µM (h)

compound: Fc1ccc(-c2cc3nc(-c4ccccc4)cc(N4CCNCC4)n3n2)cc1
measurement unit: h
half-life at 1 µM: 1.28

[P] Fc1cccc(-c2cc3nc(-c4ccccc4)cc(NCCCN4CCOCC4)n3n2)c1
[Q] Cc1cc(NCCCN2CCOCC2)n2nc(-c3cccc(F)c3)cc2n1
[R] Fc1ccc(-c2cc3nc(-c4ccccc4)cc(NC4CCNC4)n3n2)cc1 (stereo not given)
Task: Please list these compounds in decreasing order of half-life at 1 µM. Enter labels, ranked according to the request.
Result: P, R, Q

[A] c1ccc2c(Oc3nc(NCCN4CCCC4)nc4ccsc34)cccc2c1
[B] Cc1cc(N2CCNCC2)n2nc(-c3cccc(F)c3)cc2n1
Task: Between A and B , which one shows the smaller half-life at 1 µM number? Identify your pick by its label.
Result: A
(A: 0.0583 h, B: 0.762 h)
